tested.on: T1, human MET-Fc (R&D Systems) (human, UniProt P08581 25-932)
T1 construct: extracellular domain; bought chimeric protein; also called hMET; not shown: Fc portion of human IgG1
assay.summary: competition ELISA, hMET-Fc in solid phase, competitor 0.3 nM biotinylated hHGF
Assign a class from recorded IMAX; defined classes: 0 = under 70%, 1 = from 70% up to 90%, 2 = 90% and over

Past entries and their recorded results:
binder	assigned.class
71D6 chimeric llama-human IgG1 mAb (antibody, V domains shown, llama VH on human IgG1 CH1-CH2-CH3, llama VL on human lambda CL) VH: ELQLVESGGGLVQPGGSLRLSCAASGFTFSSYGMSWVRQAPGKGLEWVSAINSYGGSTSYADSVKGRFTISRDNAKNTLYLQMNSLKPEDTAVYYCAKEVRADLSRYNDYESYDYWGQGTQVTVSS VL: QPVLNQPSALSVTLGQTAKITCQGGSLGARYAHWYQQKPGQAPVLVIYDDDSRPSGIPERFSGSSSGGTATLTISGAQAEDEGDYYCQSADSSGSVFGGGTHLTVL	2
71G12 chimeric llama-human IgG1 mAb (antibody, V domains shown, llama VH on human IgG1 CH1-CH2-CH3, llama VL on human kappa CL) VH: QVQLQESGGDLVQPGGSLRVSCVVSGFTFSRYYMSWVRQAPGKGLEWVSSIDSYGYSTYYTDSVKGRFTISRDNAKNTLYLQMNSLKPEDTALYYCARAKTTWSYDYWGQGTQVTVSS VL: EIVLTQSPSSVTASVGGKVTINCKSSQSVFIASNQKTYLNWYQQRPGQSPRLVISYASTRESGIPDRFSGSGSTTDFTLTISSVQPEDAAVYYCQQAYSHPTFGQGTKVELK	0
71G2 chimeric llama-human IgG1 mAb (antibody, V domains shown, llama VH on human IgG1 CH1-CH2-CH3, llama VL on human lambda CL) VH: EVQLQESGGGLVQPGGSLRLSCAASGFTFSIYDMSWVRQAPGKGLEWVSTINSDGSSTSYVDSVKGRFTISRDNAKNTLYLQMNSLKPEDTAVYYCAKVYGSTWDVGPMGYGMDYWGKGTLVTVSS VL: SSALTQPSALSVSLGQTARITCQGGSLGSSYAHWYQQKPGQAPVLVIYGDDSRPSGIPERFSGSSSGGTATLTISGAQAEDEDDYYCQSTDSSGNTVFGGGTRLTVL	2
72F8 chimeric llama-human IgG1 mAb (antibody, V domains shown, llama VH on human IgG1 CH1-CH2-CH3, llama VL on human lambda CL) VH: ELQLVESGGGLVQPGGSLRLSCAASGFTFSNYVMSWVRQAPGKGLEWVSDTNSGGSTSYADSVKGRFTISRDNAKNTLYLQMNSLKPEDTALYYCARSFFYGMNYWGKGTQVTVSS VL: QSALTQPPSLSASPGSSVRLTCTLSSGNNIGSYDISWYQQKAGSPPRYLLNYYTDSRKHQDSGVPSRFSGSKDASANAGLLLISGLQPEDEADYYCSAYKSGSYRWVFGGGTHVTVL	1
74C8 chimeric llama-human IgG1 mAb (antibody, V domains shown, llama VH on human IgG1 CH1-CH2-CH3, llama VL on human lambda CL) VH: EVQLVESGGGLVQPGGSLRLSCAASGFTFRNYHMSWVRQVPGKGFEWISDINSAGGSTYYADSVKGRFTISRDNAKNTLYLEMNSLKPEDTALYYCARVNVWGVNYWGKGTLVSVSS VL: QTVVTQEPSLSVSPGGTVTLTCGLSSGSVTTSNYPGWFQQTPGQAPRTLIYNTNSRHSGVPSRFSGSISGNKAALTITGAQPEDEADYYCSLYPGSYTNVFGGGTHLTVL	1

Field: next binder
Ask: Hey, which category is 71C3 chimeric llama-human IgG1 mAb (antibody, V domains shown, llama VH on human IgG1 CH1-CH2-CH3, llama VL on human lambda CL) VH: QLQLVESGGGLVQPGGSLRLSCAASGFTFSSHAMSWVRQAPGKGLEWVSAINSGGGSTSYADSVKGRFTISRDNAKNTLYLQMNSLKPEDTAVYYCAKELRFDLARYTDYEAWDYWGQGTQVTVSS VL: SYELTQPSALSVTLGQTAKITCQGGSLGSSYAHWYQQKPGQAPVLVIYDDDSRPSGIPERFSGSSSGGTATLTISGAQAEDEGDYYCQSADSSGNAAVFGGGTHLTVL in, do you know?
Reply: 2

Where these numbers come from: patent US20210087281A1
